In this section we review reported protein stability index values for a set of variants.
B1: CDC25A (parent)
chain: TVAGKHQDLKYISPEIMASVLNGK

variants of: B1; experiment: protein stability index of a GFP-peptide fusion (GPS, HEK-293T) (PSI 1-6); higher = more stable; conditions: c terminus: a fixed tail appended;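 note: lentivirally expressed fusions sorted by FACS into six bins by GFP to DsRed ratio, PSI derived from sequencing read proportions per bin multiplied by bin number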
Form rule: numeric answer, no unit written next to it.

{"columns": ["variant", "protein stability index"],
 "data": [
  ["Q7N", 2.46]
]}

// protein stability index lookup, variant = `V2E` , result: 3.68

// protein stability index lookup, variant = `L9W` , result: 2.81

// protein stability index lookup, variant = `L21P` , result: 4.08

// protein stability index lookup, variant = `G23T` , result: 3.25

// protein stability index lookup, variant = `G4W` , result: 2.27

Data origin, for the record: the supplement of paper PMC10567573
